# Test system: Mus musculus
# Assay Info: Central analgesic activity in Swiss albino mouse assessed as thermal stimuli reaction time at 20 mg/kg, po after 90 mins by hot plate method
# Format: functional
For each of the compounds below, state its Activity.

Record COc1ccc(NC2NC(SC)=Nc3nc4c(c(-c5ccc(Cl)cc5)c32)CCC/C4=C/c2ccc(Cl)cc2)cc1 (centres undefined) has Mus musculus Activity equal to 9.22 min

Reported Activity (Mus musculus) for entry CSC1=Nc2nc3c(c(-c4ccc(Cl)cc4)c2C(N2CCOCC2)N1)CCC/C3=C/c1ccc(Cl)cc1 (centres undefined) is 11.12 min

The compound CSc1nc2nc3c(c(-c4ccc(Cl)cc4)c2c(=O)[nH]1)CCC/C3=C/c1ccc(Cl)cc1 on Mus musculus: Activity was 10.67 min

Result for O=c1/c(=C/c2ccccc2)sc2nc3nc4c(c(-c5ccc(Cl)cc5)c3c(=O)n12)CCC/C4=C/c1ccc(Cl)cc1 , tested on Mus musculus, Activity: 11.08 min

---

# Assay Info: Antioxidant activity in Sprague-Dawley rat erythrocytes assessed as peroxyl radical-induced hemolysis after 1 hr
# Type: functional, Erythrocyte
Recorded Endpoint: Activity
Express your answer as a number followed by its unit.

Kindly note the recorded Activity for O=c1[nH]c(=S)[nH]c2c1C(c1ccc(Cl)cc1)C1=C(N2)/C(=C/c2ccc(Cl)cc2)CCC1 (stereo not given) , which is 12.72%

// sample O=c1c2c(-c3ccc(Cl)cc3)c3c(nc2nc2sc4c(n12)ONC4c1ccccc1)/C(=C\c1ccc(Cl)cc1)CCC3 (stereo not given) , its Activity was 9.39%

Per the record, C/C(=N/NC(N)=S)c1sc2nc3nc4c(c(-c5ccc(Cl)cc5)c3c(=O)n2c1C)CCC/C4=C/c1ccc(Cl)cc1 has Activity of 6.21%

Record summary for Cc1c(C(=O)/C=C/c2ccccc2)sc2nc3nc4c(c(-c5ccc(Cl)cc5)c3c(=O)n12)CCC/C4=C/c1ccc(Cl)cc1 : reported Activity = 4.54%

Entry CCSc1nc2nc3c(c(-c4ccc(Cl)cc4)c2c(=O)n1CC)CCC/C3=C/c1ccc(Cl)cc1 — recorded Activity = 30.75%

Short answer for O=C(CSc1nc2nc3c(c(-c4ccc(Cl)cc4)c2c(=O)[nH]1)CCC/C3=C/c1ccc(Cl)cc1)c1ccccc1 : Activity was 6.51%

response.value for COc1ccc(/C=C2\CCCC3=C2Nc2[nH]c(=S)[nH]c(=O)c2C3c2ccc(OC)cc2)cc1 (stereo not given) (field: Activity) = 8.18%

Kindly note the recorded Activity for O=c1[nH]c(=S)[nH]c2nc3c(c(-c4ccc(Cl)cc4)c12)CCC/C3=C\c1ccc(Cl)cc1 , which is 8.33%

// recorded Activity for CC(=O)C(Sc1nc2nc3c(c(-c4ccc(Cl)cc4)c2c(=O)[nH]1)CCC/C3=C/c1ccc(Cl)cc1)C(C)=O : 7.87%

O=c1/c(=C/c2ccccc2)sc2nc3nc4c(c(-c5ccc(Cl)cc5)c3c(=O)n12)CCC/C4=C/c1ccc(Cl)cc1 has a reported Activity of 5.75%

Reported Activity for CC(=O)CSc1nc2nc3c(c(-c4ccc(Cl)cc4)c2c(=O)[nH]1)CCC/C3=C/c1ccc(Cl)cc1 was 8.33%

get_value(item= CSc1nc2nc3c(c(-c4ccc(Cl)cc4)c2c(=O)n1C)CCC/C3=C/c1ccc(Cl)cc1 , readout=Activity) returns 4.09%

# Activity (compound: CC(=O)c1sc2nc3nc4c(c(-c5ccc(Cl)cc5)c3c(=O)n2c1C)CCC/C4=C/c1ccc(Cl)cc1 ) is 6.06%

So, CCSc1nc2nc3c(c(-c4ccc(Cl)cc4)c2c(=O)[nH]1)CCC/C3=C/c1ccc(Cl)cc1 ? Its Activity was 5.6%

Per the records, this compound ( O=c1[nH]c(=S)[nH]c2c1C(c1ccccc1)C1=C(N2)/C(=C/c2ccccc2)CCC1 (stereo not given) ) has Activity equal to 35.75%
